Readings of MIC for the listed molecules
- Test system: Enterococcus faecalis 2041
- TEST: Broth micro-dilution MIC
- Type: cell-based
- RUN PARAMETERS: BHI medium
Record the value in µg/mL, omitting the unit from your answer.

{"MOLECULE": "CCCCCCCCOc1ccc(C(=O)NC2(C)CC(OC3C(Oc4c5cc6cc4Oc4ccc(cc4Cl)C(OC4CC(C)(N)C(O)C(C)O4)C4NC(=O)C(NC(=O)C6NC(=O)C(CC(N)=O)NC(=O)C(NC(=O)C(CC(C)C)NC)C(O)c6ccc(c(Cl)c6)O5)c5ccc(O)c(c5)-c5c(O)cc(O)cc5C(C(=O)O)NC4=O)OC(CO)C(O)C3O)OC(C)C2O)cc1 (stereo not drawn)", "MIC [µg/mL]": 0.25}
{"MOLECULE": "CNC(CC(C)C)C(=O)NC1C(=O)NC(CC(N)=O)C(=O)NC2C(=O)NC3C(=O)NC(C(=O)NC(C(=O)O)c4cc(O)cc(O)c4-c4cc3ccc4O)C(OC3CC(C)(N)C(O)C(C)O3)c3ccc(c(Cl)c3)Oc3cc2cc(c3OC2OC(CO)C(O)C(O)C2OC2CC(C)(NC(=O)c3ccc(-c4ccccc4)cc3)C(O)C(C)O2)Oc2ccc(cc2Cl)C1O (stereo not drawn)", "MIC [µg/mL]": 0.125}

Quick one: MIC for CC(C)CC(C(=O)NC1C(=O)NC(CC(N)=O)C(=O)NC2C(=O)NC3C(=O)NC(C(=O)NC(C(=O)O)c4cc(O)cc(O)c4-c4cc3ccc4O)C(OC3CC(C)(N)C(O)C(C)O3)c3ccc(c(Cl)c3)Oc3cc2cc(c3OC2OC(CO)C(O)C(O)C2OC2CC(C)(N)C(O)C(C)O2)Oc2ccc(cc2Cl)C1O)N(C)C(=O)CCCCCCCc1ccccc1 (stereo not drawn) ?
0.25

---

- System: Staphylococcus epidermidis 270
- TEST: Broth micro-dilution MIC
- Type: cell-based
Readings of MIC for the listed compounds

{"COMPOUND": "CNC(CC(C)C)C(=O)NC1C(=O)NC(CC(N)=O)C(=O)NC2C(=O)NC3C(=O)NC(C(=O)NC(C(=O)O)c4cc(O)cc(O)c4-c4cc3ccc4O)C(OC3CC(C)(NC(=O)CCCCCCCc4ccccc4)C(O)C(C)O3)c3ccc(c(Cl)c3)Oc3cc2cc(c3OC2OC(CO)C(O)C(O)C2OC2CC(C)(N)C(O)C(C)O2)Oc2ccc(cc2Cl)C1O (stereo not shown)", "MIC": "2 µg/mL"}
{"COMPOUND": "CNC(CC(C)C)C(=O)NC1C(=O)NC(CC(N)=O)C(=O)NC2C(=O)NC3C(=O)NC(C(=O)NC(C(=O)O)c4cc(O)cc(O)c4-c4cc3ccc4O)C(OC3CC(C)(N)C(O)C(C)O3)c3ccc(c(Cl)c3)Oc3cc2cc(c3OC2OC(CO)C(O)C(O)C2OC2CC(C)(NC(=O)CCCCCCCc3ccccc3)C(O)C(C)O2)Oc2ccc(cc2Cl)C1O (stereo not shown)", "MIC": "1 µg/mL"}

Lookup: MIC / Staphylococcus epidermidis 270 / CC(C)CC(C(=O)NC1C(=O)NC(CC(N)=O)C(=O)NC2C(=O)NC3C(=O)NC(C(=O)NC(C(=O)O)c4cc(O)cc(O)c4-c4cc3ccc4O)C(OC3CC(C)(N)C(O)C(C)O3)c3ccc(c(Cl)c3)Oc3cc2cc(c3OC2OC(CO)C(O)C(O)C2OC2CC(C)(N)C(O)C(C)O2)Oc2ccc(cc2Cl)C1O)N(C)C(=O)CCCCCCCc1ccccc1 (stereo not shown)
0.25 µg/mL

Lookup: MIC / Staphylococcus epidermidis 270 / CNC(CC(C)C)C(=O)NC1C(=O)NC(CC(N)=O)C(=O)NC2C(=O)NC3C(=O)NC(C(=O)NC(C(=O)O)c4cc(O)cc(O)c4-c4cc3ccc4O)C(OC3CC(C)(N)C(O)C(C)O3)c3ccc(c(Cl)c3)Oc3cc2cc(c3OC2OC(CO)C(O)C(O)C2OC2CC(C)(NC(=O)c3ccc(-c4ccccc4)cc3)C(O)C(C)O2)Oc2ccc(cc2Cl)C1O (stereo not shown)
16 µg/mL
